- System under test: ΔF508-CFTR (Homo sapiens, UniProt P13569, DEL508-508)
- Sequence (P13569 with tags, fused parts or gaps DEL508-508): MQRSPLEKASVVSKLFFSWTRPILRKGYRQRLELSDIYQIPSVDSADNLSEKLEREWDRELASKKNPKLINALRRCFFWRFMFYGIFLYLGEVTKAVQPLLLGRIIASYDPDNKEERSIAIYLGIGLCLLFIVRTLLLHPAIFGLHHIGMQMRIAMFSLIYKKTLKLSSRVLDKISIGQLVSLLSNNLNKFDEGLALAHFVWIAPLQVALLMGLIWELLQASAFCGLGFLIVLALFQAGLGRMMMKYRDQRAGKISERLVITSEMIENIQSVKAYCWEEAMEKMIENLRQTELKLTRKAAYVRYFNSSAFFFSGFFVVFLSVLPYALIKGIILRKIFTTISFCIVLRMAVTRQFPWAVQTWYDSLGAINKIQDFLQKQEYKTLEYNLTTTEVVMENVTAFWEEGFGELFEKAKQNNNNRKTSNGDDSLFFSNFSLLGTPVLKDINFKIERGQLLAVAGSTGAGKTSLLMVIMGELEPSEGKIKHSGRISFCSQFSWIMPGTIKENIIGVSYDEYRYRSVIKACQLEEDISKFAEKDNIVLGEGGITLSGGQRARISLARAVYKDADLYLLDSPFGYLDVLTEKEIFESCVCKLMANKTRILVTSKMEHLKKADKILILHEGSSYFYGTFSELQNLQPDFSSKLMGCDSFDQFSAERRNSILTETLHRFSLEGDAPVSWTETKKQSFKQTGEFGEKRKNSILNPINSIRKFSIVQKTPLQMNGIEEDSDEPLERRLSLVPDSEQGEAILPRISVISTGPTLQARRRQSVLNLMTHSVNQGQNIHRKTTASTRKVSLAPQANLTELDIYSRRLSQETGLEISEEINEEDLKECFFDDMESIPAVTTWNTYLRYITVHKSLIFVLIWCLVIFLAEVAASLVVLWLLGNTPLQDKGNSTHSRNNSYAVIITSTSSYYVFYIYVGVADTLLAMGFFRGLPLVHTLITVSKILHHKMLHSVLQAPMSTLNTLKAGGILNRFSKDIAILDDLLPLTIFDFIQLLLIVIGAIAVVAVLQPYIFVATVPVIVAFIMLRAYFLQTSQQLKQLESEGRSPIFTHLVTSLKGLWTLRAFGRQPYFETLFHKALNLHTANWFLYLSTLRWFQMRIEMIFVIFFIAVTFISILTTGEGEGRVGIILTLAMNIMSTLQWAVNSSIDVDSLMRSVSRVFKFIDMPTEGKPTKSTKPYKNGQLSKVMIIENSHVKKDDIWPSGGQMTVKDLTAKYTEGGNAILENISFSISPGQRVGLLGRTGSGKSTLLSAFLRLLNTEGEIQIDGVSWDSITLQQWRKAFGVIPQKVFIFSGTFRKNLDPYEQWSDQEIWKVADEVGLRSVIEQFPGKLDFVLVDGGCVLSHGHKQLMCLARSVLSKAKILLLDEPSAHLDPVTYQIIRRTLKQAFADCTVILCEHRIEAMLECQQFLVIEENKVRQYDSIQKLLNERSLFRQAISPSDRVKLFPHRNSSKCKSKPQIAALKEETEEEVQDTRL
- Protocol summary: Membrane potential optical assay for ΔF508-CFTR correction properties of compounds
- Assay conditions: ΔF508-CFTR in NIH3T3 mouse fibroblasts; test behind Table 2 not named
Measurement label: EC50

1. CC1(C)c2cc3cc(NC(=O)C4(c5ccc6c(c5)OC(F)(F)O6)CC4)c(F)cc3n2C[C@H](CO)OC1O (stereo partly shown)
< 2000 nM
